target: human ether-à-go-go-related gene (hERG) potassium channel (human, UniProt Q12809); test: primary screen, population patch clamp on CHO cells stably expressing hERG; higher = less effect of the substance;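 note: peak tail current of the secondary pulse compared with the same well before compound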
Sequence (Q12809 whole entry, looked up): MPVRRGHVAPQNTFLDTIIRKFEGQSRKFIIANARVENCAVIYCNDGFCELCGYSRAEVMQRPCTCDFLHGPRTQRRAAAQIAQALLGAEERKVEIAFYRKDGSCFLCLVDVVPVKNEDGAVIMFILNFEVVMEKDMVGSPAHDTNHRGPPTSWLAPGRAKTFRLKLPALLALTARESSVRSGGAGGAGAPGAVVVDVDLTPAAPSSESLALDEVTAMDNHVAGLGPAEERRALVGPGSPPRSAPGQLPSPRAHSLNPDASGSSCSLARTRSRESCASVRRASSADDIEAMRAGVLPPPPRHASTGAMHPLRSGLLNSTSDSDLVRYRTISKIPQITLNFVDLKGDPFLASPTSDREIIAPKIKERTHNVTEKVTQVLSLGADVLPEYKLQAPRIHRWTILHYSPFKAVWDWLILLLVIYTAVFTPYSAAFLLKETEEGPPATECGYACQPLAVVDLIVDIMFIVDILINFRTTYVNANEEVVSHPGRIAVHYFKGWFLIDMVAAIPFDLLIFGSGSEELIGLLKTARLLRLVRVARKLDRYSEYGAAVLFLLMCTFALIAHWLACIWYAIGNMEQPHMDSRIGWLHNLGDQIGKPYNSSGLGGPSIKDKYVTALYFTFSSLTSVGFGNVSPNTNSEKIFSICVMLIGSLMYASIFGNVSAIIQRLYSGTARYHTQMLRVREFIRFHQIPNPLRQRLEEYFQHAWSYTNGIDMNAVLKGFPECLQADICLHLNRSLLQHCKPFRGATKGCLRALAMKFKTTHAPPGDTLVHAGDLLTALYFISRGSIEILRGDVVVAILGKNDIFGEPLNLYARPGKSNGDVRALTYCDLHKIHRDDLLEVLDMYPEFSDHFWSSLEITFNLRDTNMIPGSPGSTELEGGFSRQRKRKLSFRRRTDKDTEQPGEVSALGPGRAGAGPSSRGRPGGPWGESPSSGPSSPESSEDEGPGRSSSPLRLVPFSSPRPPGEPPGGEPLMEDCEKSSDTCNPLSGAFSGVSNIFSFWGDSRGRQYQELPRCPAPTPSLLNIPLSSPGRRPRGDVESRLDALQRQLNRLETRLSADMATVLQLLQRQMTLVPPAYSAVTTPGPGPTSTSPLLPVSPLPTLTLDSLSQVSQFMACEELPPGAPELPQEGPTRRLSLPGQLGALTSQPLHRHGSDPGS
Screen size: about 310,000 compounds; about 14,000 (4.5%) showed an effect of 50% or more. The effect is printed as a negative number. The full list was thinned out, with strong results kept by preference.
observable: hERG current change (%, negative = inhibition) at 10uM (%)
One number for each entry, in %.

Go through the list and state hERG current change (%, negative = inhibition) at 10uM for each entry.
1. Oc1ccccc1N1CCN(c2nc(-c3cccs3)nc3ccccc23)CC1
2. O=C(Nc1ccccc1)c1ccc(NCCN2C(=O)CCC2=O)c([N+](=O)[O-])c1
3. CN1C(=O)C(CC(=O)Nc2ccc(F)cc2)N(CCCc2ccccc2)C1=S (stereo not drawn)

OUT:
5.52
10.9
0.0595

Go through the list and state hERG current change (%, negative = inhibition) at 10uM for each entry.
1. CCOc1ccc(NC(=O)CN(C)C(=O)c2ccc(N3CCCCC3)c([N+](=O)[O-])c2)cc1OCC
2. CC(C)OC(=O)c1ccc(NC(=O)Cn2c(-c3nonc3N)nc3ccccc32)cc1
3. CC(=O)Nc1cccc(OCc2cnc(Cl)s2)c1
4. CN(C)S(=O)(=O)N1CCN(c2ccccc2)CC1
5. COc1ccc(CNC(=O)CCSCc2ccc(C)cc2)cc1
6. Cc1cccc(N2CCN(C(=O)Cc3cn(C)c4ccccc34)CC2)c1C

OUT:
[-57.6, 18.4, 11.4, -1.78, -16.2, -7.32]

Go through the list and state hERG current change (%, negative = inhibition) at 10uM for each entry.
1. COc1ccc(C(=O)COc2ccc3ccc(=O)oc3c2)cc1
2. CCOC(=O)N1CCN(c2c(N3CCN(C(=O)OCC)CC3)c(=O)c2=O)CC1
3. O=C(C1CCN(S(=O)(=O)c2cnc[nH]2)CC1)N1CCN(c2ccc([N+](=O)[O-])cc2)CC1
4. CC(=O)N1CCN(c2nc(-c3cccs3)nc3ccccc23)CC1
5. O=C(CSc1ccc2nnc(-c3ccncc3)n2n1)Nc1ccc2c(c1)OCCO2
6. CCC(=O)N1CCN(c2ccc(NC(=O)COc3cccc(C)c3C)cc2)CC1
7. Cc1cccc(-c2ocnc2C(=O)Nc2ccccc2C(=O)N2CCCC2)c1

OUT:
-3.32
-29.1
-1.78
-63.2
10.9
-12
-37

Go through the list and state hERG current change (%, negative = inhibition) at 10uM for each entry.
1. Cc1sc2ncnc(N3CCCCC3C)c2c1C (stereo not drawn)
2. COC(=O)C1CCN(c2ccc([N+](=O)[O-])cc2)CC1
3. CCOC(=O)N1CCN(c2nc(-c3cccs3)nc3ccccc23)CC1
4. CCOC(=O)N1CCN(c2c(N3CCN(c4ccc(F)cc4)CC3)c(=O)c2=O)CC1

OUT:
1. -13.6
2. -21.7
3. -1.74
4. -73.4

IN: Short answer please: hERG current change (%, negative = inhibition) at 10uM, human ether-à-go-go-related gene (hERG) potassium channel (human, UniProt Q12809), entry Fc1ccc2c(c1)C1C=CCC1C(c1cc3c(cc1Br)OCO3)N2 (stereo not drawn)
OUT: 4.83

* * *

target: human ether-à-go-go-related gene (hERG) potassium channel (human, UniProt Q12809); experiment: primary screen, population patch clamp on CHO cells stably expressing hERG; higher = less effect of the substance;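 note: peak tail current of the secondary pulse compared with the same well before compound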
The whole screen tested about 310,000 compounds, of which about 14,000 (4.5%) showed an effect of 50% or more. The effect is printed as a negative number. Only a selection was taken, and strong results are over-represented in it overall.
So I've got a bunch of molecules here, and I need their hERG current change (%, negative = inhibition) at 10uM values.
Output should be the measured figure followed by the unit it is expressed in.

Below: 5 molecules and their reported hERG current change (%, negative = inhibition) at 10uM.
[[record]]
molecule = "COc1ccc(-c2cnc(SCCNC(=O)c3ccc4c(c3)OCO4)[nH]2)cc1"
observed_value = "-5.44%"

[[record]]
molecule = "C=CCc1ccc(OCCCCNC(C)CC)c(OC)c1.O=C(O)C(=O)O (centres unmarked)"
observed_value = "-39.3%"

[[record]]
molecule = "C/C=C/c1ccc(OCCn2nnc3ccccc32)c(OC)c1"
observed_value = "-2.9%"

[[record]]
molecule = "COc1ccc(N=N/C(C(C)=O)=C(/C)O)cc1"
observed_value = "-24.5%"

[[record]]
molecule = "Cc1nccn1CCCNC(=O)CC1C(=O)NCCN1Cc1ccccc1C(F)(F)F (centres unmarked)"
observed_value = "9.64%"


Go through the list and state hERG current change (%, negative = inhibition) at 10uM for each entry.
1. C=CCNc1nc(C2(C)CC3(CC(C)OC3=O)C(=O)O2)cs1 (centres unmarked)
2. COc1ccc(C(=O)N2CCN(Cc3ccccc3C(F)(F)F)CC2)cc1.O=C(O)C(=O)O
3. CCOC(=O)c1c(NC(=S)Nc2ccccc2)sc2c1CCN(CCc1ccccc1)C2
4. CCOC(=O)c1c(NC(=S)NCc2ccccc2)sc2c1CCN(C(=O)OCC)C2
5. COCCN1C(=O)CC(NNC(=O)c2ccc(S(=O)(=O)N3CCCC3)cc2)C1=O (centres unmarked)

OUT:
-4.86%
-1.25%
-64.1%
32.8%
10%

Go through the list and state hERG current change (%, negative = inhibition) at 10uM for each entry.
1. COc1ccc(CN2CCN(Cc3ccccc3C(F)(F)F)CC2)c(OC)c1.O=C(O)C(=O)O
2. O=C(c1cccc(Br)c1)N1CCN(C(=O)N2CCOCC2)CC1
3. O=[N+]([O-])c1ccc(C[n+]2cccc3c4ccccc4ccc32)cc1.[Br-]
4. C=CCc1ccc(OCCOCCN(C)C)c(OC)c1.O=C(O)C(=O)O
5. CCC(C(=O)Nc1ccc(C(C)C)cc1)c1ccccc1 (centres unmarked)
6. CCOC(=O)c1c(N)sc2c1CCN(CCc1ccccc1)C2
7. C=CCc1ccc(OCCN2CCc3ccccc3C2)c(OC)c1.O=C(O)C(=O)O

OUT:
-74.2%
10.4%
-40.5%
-27.5%
11.8%
-28.6%
-67.6%

Go through the list and state hERG current change (%, negative = inhibition) at 10uM for each entry.
1. CCOC(=O)c1c(NC(C)=O)sc2c1CCN(Cc1ccccc1)C2.Cl
2. CS(=O)(=O)Nc1ccccc1C(=O)N1CCOCC1
3. COc1cc(CN2CCN(Cc3ccccc3C(F)(F)F)CC2)cc(OC)c1OC.O=C(O)C(=O)O

OUT:
-20.5%
16.4%
-8.28%

* * *

Target: human ether-à-go-go-related gene (hERG) potassium channel (human, UniProt Q12809);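 note: peak tail current of the secondary pulse compared with the same well before compound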
Assay: primary screen, population patch clamp on CHO cells stably expressing hERG; higher = less effect of the substance
Description: Briefly, Chinese hamster ovary (CHO) cells stably expressing the hERG channel were dislodged from tissue culture flasks and dispensed into PPC plates. […] During the recording, background leak currents were estimated by a 100 ms step to -80 mV from an initial holding potential of -70 mV and subtracted from the subsequent current measurement. The campaign was conducted in two phases using slight differences in recording protocol. […]
Screen size: about 310,000 compounds; about 14,000 (4.5%) showed an effect of 50% or more. The effect is printed as a negative number. The full list was thinned out, with strong results kept by preference.
observable: hERG current change (%, negative = inhibition) at 10uM (%)
Answers are plain numbers, in %.

Below: 6 compounds and their reported hERG current change (%, negative = inhibition) at 10uM.
[[record]]
compound = "COC(=O)COc1ccc2c(=O)c(-c3ccccc3OC)coc2c1"
unit_text = "%"
observed_value = 10.2

[[record]]
compound = "O=C(Nc1cccc(C(F)(F)F)c1)C(Sc1ncnc2ccccc12)c1ccccc1 (stereo not shown)"
unit_text = "%"
observed_value = 0.968

[[record]]
compound = "O=C(CCc1ccc(Oc2cc([N+](=O)[O-])cc([N+](=O)[O-])c2)cc1)N1CCCCCC1"
unit_text = "%"
observed_value = -30.2

[[record]]
compound = "O=C1NC(=O)C(=Cc2ccc3c(c2)OCO3)C(=O)N1"
unit_text = "%"
observed_value = 15.3

[[record]]
compound = "CCNC(=O)CN(c1ccc(C)cc1)S(=O)(=O)c1ccccc1"
unit_text = "%"
observed_value = 7.75

[[record]]
compound = "CCc1nc(SCC(=O)Nc2nnc(CC)s2)c2c(=O)n(C)c(=O)n(C)c2n1"
unit_text = "%"
observed_value = 4.23


Go through the list and state hERG current change (%, negative = inhibition) at 10uM for each entry.
1. COc1ccc(CN(Cc2ccccn2)C(=O)CN2C(=O)C(C)Oc3ccccc32)cc1 (stereo not shown)
2. Cc1ccc(CN(Cc2cccnc2)C(=S)Nc2cccc(Cl)c2C)cc1

OUT:
[-3.36, 8.32]

Go through the list and state hERG current change (%, negative = inhibition) at 10uM for each entry.
1. CNc1cncc(C(=O)O)c1
2. Cc1ccc(N(CC(=O)NCC(O)c2ccccc2)S(=O)(=O)c2ccc(C)cc2)cc1 (stereo not shown)

OUT:
1: 7.43; 2: -65.9
